target: TGFβ R1 (Homo sapiens)
Sequence (P36897 34-503): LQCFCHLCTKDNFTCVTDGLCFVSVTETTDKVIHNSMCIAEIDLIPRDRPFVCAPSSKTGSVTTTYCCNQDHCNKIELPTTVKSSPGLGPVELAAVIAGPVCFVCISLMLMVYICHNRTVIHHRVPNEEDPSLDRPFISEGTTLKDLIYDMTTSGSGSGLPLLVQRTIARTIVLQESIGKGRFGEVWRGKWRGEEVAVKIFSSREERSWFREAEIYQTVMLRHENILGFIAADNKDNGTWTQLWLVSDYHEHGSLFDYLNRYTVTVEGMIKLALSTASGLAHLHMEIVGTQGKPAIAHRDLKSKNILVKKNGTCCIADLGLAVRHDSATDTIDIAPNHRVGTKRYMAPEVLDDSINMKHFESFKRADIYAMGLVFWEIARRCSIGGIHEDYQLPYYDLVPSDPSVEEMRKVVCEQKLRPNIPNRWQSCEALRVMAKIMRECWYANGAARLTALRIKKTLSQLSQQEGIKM
Kindly apply the following: true if IC50 is less than 1000 nM, false in every other case.

# check: IC50 < 1000 nM for Nc1ccc2c(Nc3ccncc3C(=O)NC3CC3)nc(-c3cc(Cl)ccc3F)nc2n1
false

# check: IC50 < 1000 nM for NC(=O)c1cnccc1Nc1nc(-c2cc(Cl)ccc2F)nc2ncccc12
true

# check: IC50 < 1000 nM for CCOC(=O)c1cnccc1Nc1nc(-c2cc(Cl)ccc2F)nc2ncccc12
true

# check: IC50 < 1000 nM for COc1ccc(CNc2ccc3c(Nc4ccncc4C(=O)NC4CC4)nc(-c4cc(Cl)ccc4F)nc3n2)cc1
false

# check: IC50 < 1000 nM for CNC(=O)c1cnccc1Nc1nc(-c2cc(Cl)ccc2NC)nc2ncccc12
false

# check: IC50 < 1000 nM for COc1ccc(CN(Cc2ccc(OC)cc2)c2ccc3c(Nc4ccncc4C(=O)O)nc(-c4cc(Cl)ccc4F)nc3n2)cc1
true

# check: IC50 < 1000 nM for COC(=O)c1cnccc1Nc1nc(-c2cc(Cl)ccc2F)nc2nc(N(Cc3ccc(OC)cc3)Cc3ccc(OC)cc3)ccc12
true

# check: IC50 < 1000 nM for CNC(=O)c1cnccc1Nc1nc(-c2cc(Cl)ccc2F)nc2ncccc12
true

# check: IC50 < 1000 nM for CN(Cc1ccccc1)c1ccc2c(Nc3ccncc3C(=O)O)nc(-c3cc(Cl)ccc3F)nc2n1
true
